Test: recombinant UMI read abundance after kanamycin selection (control-corrected) (log10(CPM+1)); higher = more efficient recombination; extreme values may be limits of the assay; sequences stand for … in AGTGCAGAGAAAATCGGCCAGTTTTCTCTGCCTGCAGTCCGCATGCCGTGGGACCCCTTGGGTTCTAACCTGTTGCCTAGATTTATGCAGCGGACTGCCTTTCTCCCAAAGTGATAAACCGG…AGGTTGGTTTCACT; site = the 11-nt donor
Observation Type: recombinant UMI read abundance (log10)

// worked examples, recombinant UMI read abundance (log10) included
Chain: AAGGGCTCATGGACCGGTTTTCCCGGTAATCCGTATTTGGC (site AAGGGCTCTGC)
recombinant UMI read abundance (log10): 3.63
--
Chain: TTTTCGGCATGGACCGGTTTTCCCGGTAATCCGTATTTGCT (site TTTACGGCTAG)
recombinant UMI read abundance (log10): 0.0102
--
Chain: CTTGGAACATGGACCGGTTTTCCCGGTAATCCGTATTTGTT (site CTTGGAACTAA)
recombinant UMI read abundance (log10): 1.36
--
Chain: CCAAATACATGGACCGGTTTTCCCGGTAATCCGTATTTGGC (site CCCAATACTGC)
recombinant UMI read abundance (log10): 0
--
Chain: AGCTCAGCATGGACCGGTTTTCCCGGTAATCCGTATTTGTG (site AGCTCAGCTCC)
recombinant UMI read abundance (log10): 0.00732

[ask] Item CTATCGACATGGACCGGTTTTCCCGGTAATCCGTATTTGTT (site CAATCGACTAA) : provide recombinant UMI read abundance (log10)
[reply] 0.0124

[ask] Item GGACACGCATGGACCGGTTTTCCCGGTAATCCGTATTTGCT (site GGACACGCTAG) : provide recombinant UMI read abundance (log10)
[reply] 2.59

* * *

Assay: recombinant barcode read abundance after kanamycin selection (control-corrected) (log10(CPM+1)); higher = more efficient recombination; sequences stand for … in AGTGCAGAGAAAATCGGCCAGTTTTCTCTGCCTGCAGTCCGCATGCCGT…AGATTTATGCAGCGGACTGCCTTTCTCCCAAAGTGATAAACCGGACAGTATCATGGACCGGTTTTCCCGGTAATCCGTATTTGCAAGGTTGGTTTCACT; site = the 11-nt target
param class (str): category from recombinant barcode read abundance (log10); see ranges class A (below 0.1), class B (0.1 to below 0.3), class C (0.3 or more)

See these solved cases before continuing.
Chain: CCAGTTACTTGGGTTCTAACCTGTTGCCT (site CCAGTAACTAG)
Assigned Label: class B

Chain: ACATTGTCTTGGGTTCTAACCTGTTGCCT (site ACTTTGTCTAG)
Assigned Label: class B

Chain: TCGCAGACTTGGGTTCTAACCTGTTGCAC (site TCGCAGACTGT)
Assigned Label: class A

[ask] Just checking, what class would you give ATTAGGACTTGGGTTCTAACCTGTTGCGA (site AATAGGACTGC) here?
[reply] class A

[ask] Just checking, what class would you give TAGAGCACTTGGGTTCTAACCTGTTGCCT (site CAGAGCACTAG) here?
[reply] class B

[ask] Just checking, what class would you give CTAGGAGCTTGGGTTCTAACCTGTTGCTA (site CTAGGAGCTCA) here?
[reply] class B

[ask] Just checking, what class would you give CACATCACTTGGGTTCTAACCTGTTGCCT (site CACACCACTAG) here?
[reply] class B

[ask] Just checking, what class would you give CACGGTCCTTGGGTTCTAACCTGTTGCCT (site CACGGTCCTAG) here?
[reply] class C

[ask] Just checking, what class would you give CGGAATTCTTGGGTTCTAACCTGTTGCCT (site CGGAATTCTAG) here?
[reply] class C

* * *

Test: recombinant barcode read abundance after kanamycin selection (control-corrected) (log10(CPM+1)); higher = more efficient recombination; sequences stand for … in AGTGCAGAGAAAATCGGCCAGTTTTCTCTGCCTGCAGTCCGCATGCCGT…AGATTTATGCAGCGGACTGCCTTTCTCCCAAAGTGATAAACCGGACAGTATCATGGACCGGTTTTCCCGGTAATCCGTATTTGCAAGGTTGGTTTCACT; site = the 11-nt target
Binary classification by recombinant barcode read abundance (log10), with 0.2 as an inclusive lower bound for Y; all other cases are N.

Chain: GAGAGGACTTGGGTTCTAACCTGTTGCTT (site GAGAGGACTAA)
Assigned Label: Y

[ask] Decide: is the reported value of recombinant barcode read abundance (log10) for TTAGCCTCTTGGGTTCTAACCTGTTGCCT (site TTAGCATCTAG) equal to or greater than 0.2?
[reply] N

[ask] Decide: is the reported value of recombinant barcode read abundance (log10) for GTCTGTTCTTGGGTTCTAACCTGTTGCCT (site GACTGTTCTAG) equal to or greater than 0.2?
[reply] N

[ask] Decide: is the reported value of recombinant barcode read abundance (log10) for ATGGGTCCTTGGGTTCTAACCTGTTGCCT (site ATTGGTCCTAG) equal to or greater than 0.2?
[reply] Y

[ask] Decide: is the reported value of recombinant barcode read abundance (log10) for CAAATCCCTTGGGTTCTAACCTGTTGCGT (site CAAATCCCTAC) equal to or greater than 0.2?
[reply] Y

[ask] Decide: is the reported value of recombinant barcode read abundance (log10) for CTAAGATCTTGGGTTCTAACCTGTTGCCT (site CTAAGATCTAG) equal to or greater than 0.2?
[reply] N

[ask] Decide: is the reported value of recombinant barcode read abundance (log10) for CGTCTCCCTTGGGTTCTAACCTGTTGCTT (site CGTCTCCCTAA) equal to or greater than 0.2?
[reply] N

[ask] Decide: is the reported value of recombinant barcode read abundance (log10) for ATGGACCCTTGGGTTCTAACCTGTTGCTC (site TATCGGGCTCT) equal to or greater than 0.2?
[reply] N

[ask] Decide: is the reported value of recombinant barcode read abundance (log10) for AGGATCCCTTGGGTTCTAACCTGTTGCAG (site AGGATCCCTCT) equal to or greater than 0.2?
[reply] Y

[ask] Decide: is the reported value of recombinant barcode read abundance (log10) for GTAGCACCTTGGGTTCTAACCTGTTGCTT (site GTAGCACCTAA) equal to or greater than 0.2?
[reply] Y

* * *

Test: recombinant UMI read abundance after kanamycin selection (control-corrected) (log10(CPM+1)); higher = more efficient recombination; extreme values may be limits of the assay; sequences stand for … in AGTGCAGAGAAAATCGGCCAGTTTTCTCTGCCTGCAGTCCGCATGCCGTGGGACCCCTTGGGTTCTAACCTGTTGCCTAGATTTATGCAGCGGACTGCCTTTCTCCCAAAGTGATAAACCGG…AGGTTGGTTTCACT; site = the 11-nt donor
Binary classification by recombinant UMI read abundance (log10), with 0.004 as an inclusive lower bound for class 1; all other cases are class 0.

[ask] Decide: is the reported value of recombinant UMI read abundance (log10) for CATAACCCATGGACCGGTTTTCCCGGTAATCCGTATTTGAT (site CATAACCCTAT) equal to or greater than 0.004?
[reply] class 1

[ask] Decide: is the reported value of recombinant UMI read abundance (log10) for CAGTACACATGGACCGGTTTTCCCGGTAATCCGTATTTGAC (site CAGTACACTGT) equal to or greater than 0.004?
[reply] class 1

[ask] Decide: is the reported value of recombinant UMI read abundance (log10) for CGGGGTCCATGGACCGGTTTTCCCGGTAATCCGTATTTGAT (site CGGGGTCCTAT) equal to or greater than 0.004?
[reply] class 0

[ask] Decide: is the reported value of recombinant UMI read abundance (log10) for CGGAATTCATGGACCGGTTTTCCCGGTAATCCGTATTTGTA (site CGGAATTCTTA) equal to or greater than 0.004?
[reply] class 1

[ask] Decide: is the reported value of recombinant UMI read abundance (log10) for CCAAGTGCATGGACCGGTTTTCCCGGTAATCCGTATTTGAT (site CCACGTGCTAT) equal to or greater than 0.004?
[reply] class 1

* * *

Assay: recombinant UMI read abundance after kanamycin selection (control-corrected) (log10(CPM+1)); higher = more efficient recombination; extreme values may be limits of the assay; sequences stand for … in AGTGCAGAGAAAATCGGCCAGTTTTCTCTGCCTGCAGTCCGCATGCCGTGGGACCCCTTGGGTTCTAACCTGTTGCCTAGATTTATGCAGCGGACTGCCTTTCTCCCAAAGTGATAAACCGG…AGGTTGGTTTCACT; site = the 11-nt donor
This section presents sequences with their documented recombinant UMI read abundance (log10) values.
API doc: respond with a numeric literal and nothing else, no unit.

// worked examples, recombinant UMI read abundance (log10) included
Chain: ACCCAAGCATGGACCGGTTTTCCCGGTAATCCGTATTTGAG (site ATCCAAGCTCT)
recombinant UMI read abundance (log10): 0.467
--
Chain: TGTTCCCCATGGACCGGTTTTCCCGGTAATCCGTATTTGCA (site TGTTCCCCTTG)
recombinant UMI read abundance (log10): 0.256
--
Chain: CCCGAGACATGGACCGGTTTTCCCGGTAATCCGTATTTGTT (site CCCGAGACTAA)
recombinant UMI read abundance (log10): 0.475
--
Chain: TCACCTTCATGGACCGGTTTTCCCGGTAATCCGTATTTGGT (site TCACCTTCTAC)
recombinant UMI read abundance (log10): 0.0163
--
Chain: TCCAGTACATGGACCGGTTTTCCCGGTAATCCGTATTTGAG (site TCCAGTACTCT)
recombinant UMI read abundance (log10): 0.00906
--
Chain: TCATGGTCATGGACCGGTTTTCCCGGTAATCCGTATTTGTT (site TCATGGTCTAA)
recombinant UMI read abundance (log10): 0.48
--
Chain: GTGCATCCATGGACCGGTTTTCCCGGTAATCCGTATTTGCA (site GTGCATCCTTG)
recombinant UMI read abundance (log10): 1.03
--
Chain: GATTATCCATGGACCGGTTTTCCCGGTAATCCGTATTTGCA (site GATTATCCTTG)
recombinant UMI read abundance (log10): 0
--
Chain: AGCTCAGCATGGACCGGTTTTCCCGGTAATCCGTATTTGTG (site AGCTCAGCTCT)
recombinant UMI read abundance (log10): 0.362
--
Chain: CAATTCTCATGGACCGGTTTTCCCGGTAATCCGTATTTGCT (site CAATTCGCTAG)
recombinant UMI read abundance (log10): 0

Please turn your attention to the following entry.
[ask] Item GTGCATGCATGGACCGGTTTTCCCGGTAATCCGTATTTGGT (site GTGCTTGCTAC) : provide recombinant UMI read abundance (log10)
[reply] 0.00578
